Tested on: Mus musculus
PROCEDURE DETAILS: Gastric ulcerogenic activity at a dose of 100 mg/kg: 8 mice were considered for the test
Format: functional
MEASUREMENT KIND: Ulcer incidence (number/group)
Numbers only; they are read as number/group.

O=c1oc2ccccc2n1CCc1ccccn1 | 1
O=c1oc2ccc(Cl)cc2n1CCc1ccccn1 | 1
O=c1oc2ccc(Cl)cc2n1CCc1ccncc1 | 1

Now look at this one.
Report Ulcer incidence for O=c1oc2ccccc2n1CCc1ccncc1 please.
0

---

Test system: Mus musculus
PROCEDURE DETAILS: The compound was evaluated for inhibition of edema induced by histamine at 10 mg/mL
Format: functional
We'd kindly ask you to apply these Inhibition classes: low bin (below 7%), mid bin (7% to below 9%), high bin (9% or more)

Sort into band: O=C(c1ccc2c(c1)oc(=O)n2CCc1ccccn1)c1ccccc1Cl
low bin

Hi there! Could you help me figure out the category for O=C(c1ccccc1Cl)c1cc2oc(=O)n(CCc3ccncc3)c2cc1Cl please?
high bin

The reported numbers originate from ChEMBL document CHEMBL1125427.
